Tested on: HIV-1 93TH053
Assay: HIV infectivity assay in TZM-bl cells
Assay type: cell-based
Details: Human immunodeficiency virus 1, TZM-bl, 93TH053 (clade E, X4); PD in cervical fluids
readoutKind: pIC50
The read-out pIC50 is expressed as -log10 of concentration in moles per litre.

**Query** Let me know recorded pIC50 for N=C1Sc2ccccc2C2=NCCCN12 , thanks.
**Result** 5.74

###

Assay: Compound cytotoxicity in uninfected PBMC (MTS assay)
Conditions: human, CC50, freshly activated PBMCs, uninfected plates, MTS assay, 7 days
readoutKind: CC50 at 7 days

**Query** Let me know recorded CC50 at 7 days for N=C1Sc2ccccc2C2=NCCCN12 , thanks.
**Result** ~200 µM

###

System: freshly activated human PBMC
Experiment: Compound cytotoxicity in uninfected PBMC (MTS assay)
Details: freshly activated PBMCs, uninfected plates, MTS assay, 7 days
readoutKind: CC50

**Query** Let me know recorded CC50 for N=C1Sc2ccccc2C2=NCCCN12 , thanks.
**Result** > 200 µM

###

Assay: Lactobacillus toxicity testing (all strains, summary)
Type: cell-based
Conditions: Lactobacillus (L. crispatus and L. jensenii), suspensions of vaginal commensal Lactobacillus strains; vaginal commensal bacteria Lactobacilli
readoutKind: CC50 at 30 min

**Query** Let me know recorded CC50 at 30 min for N=C1Sc2ccccc2C2=NCCCN12 [PD, PD 404,182] , thanks.
**Result** > 300 µM

###

Assay: Cytotoxicity on human cell lines (Cell Titer-Glo)
Type: cell-based
Conditions: human, TZM-bl (HeLa) cervical cancer cells
readoutKind: CC50

**Query** Let me know recorded CC50 for N=C1Sc2ccccc2C2=NCCCN12 [PD, PD 404,182] , thanks.
**Result** > 300 µM

###

Test system: HIV-1 RU132
Assay: HIV infectivity assay in TZM-bl cells
Assay type: cell-based
Details: Human immunodeficiency virus 1, TZM-bl, RU132 (clade G, R5); PD in cervical fluids
readoutKind: pIC50
The read-out pIC50 is expressed as -log10 of concentration in moles per litre.

**Query** Let me know recorded pIC50 for N=C1Sc2ccccc2C2=NCCCN12 [PD, PD 404,182] , thanks.
**Result** 6.05

###

Tested on: HIV-1 93BR020
Assay: HIV infectivity assay in TZM-bl cells
Type: cell-based
Settings: Human immunodeficiency virus 1, TZM-bl, 93BR020 (clade F, X4); PD in cervical fluids
readoutKind: IC50 (nM)
Numeric only. Scale: nM

**Query** Let me know recorded IC50 for N=C1Sc2ccccc2C2=NCCCN12 , thanks.
**Result** 1900

###

Assay: Cytotoxicity on human cell lines (Cell Titer-Glo)
Assay type: cell-based
Conditions: HepG2, HCT-8, Huh-7, Huh-7.5, TZM, PC3 and 293T cells; seven different human cell lines
readoutKind: CC50

**Query** Let me know recorded CC50 for N=C1Sc2ccccc2C2=NCCCN12 [PD, PD 404,182] , thanks.
**Result** > 300 µM

###

Tested on: primary isolates of HIV and SIV
Test: organism not typed
Type: cell-based, HIV-1, HIV-2
Details: read-out: IC50 range
readoutKind: IC50

**Query** Let me know recorded IC50 for N=C1Sc2ccccc2C2=NCCCN12 , thanks.
**Result** 610 to 2300 nM

###

System: HIV-1 92RW016
Experiment: Anti-HIV efficacy in fresh human PBMC (reverse transcriptase activity)
Assay type: cell-based
Conditions: Human immunodeficiency virus 1, PBMC, 168 h; 92RW016 (clade A, R5); PBMCs, MOI = 0.1, 7 days
readoutKind: IC50 (nM)
Numeric only. Scale: nM

**Query** Let me know recorded IC50 for N=C1Sc2ccccc2C2=NCCCN12 , thanks.
**Result** 220

###

Tested on: primary isolates of HIV and SIV
Assay: microbe, parasite or virus in culture
Assay type: cell-based, HIV-1, HIV-2
Details: Human immunodeficiency virus 1, TZM-bl, read-out: IC50 range over tested subtypes of HIV-1
readoutKind: IC50

**Query** Would you please give the reported IC50 of N=C1Sc2ccccc2C2=NCCCN12 with primary isolates of HIV and SIV?
**Result** 0.42 to 1.96 µM

###

Test system: primary isolates of HIV and SIV
Test: organism not typed
Assay type: cell-based, HIV-1, HIV-2
Details: TZM-bl
readoutKind: IC50

**Query** Let me know recorded IC50 for N=C1Sc2ccccc2C2=NCCCN12 [PD, PD 404,182] , thanks.
**Result** ~1000 nM

###

System: HIV-1 93IN017
Test: HIV infectivity assay in TZM-bl cells
Assay type: cell-based
Conditions: Human immunodeficiency virus 1, TZM-bl, 93IN017 (clade C, X4); PD in cervical fluids
readoutKind: pIC50
The read-out pIC50 is expressed as -log10 of concentration in moles per litre.

**Query** Let me know recorded pIC50 for N=C1Sc2ccccc2C2=NCCCN12 [PD, PD 404,182] , thanks.
**Result** 6.15

###

System: Jc1 HCVcc
Test: microbe, parasite or virus in culture
Type: cell-based, HCV
Details: Hepatitis C virus, Huh7.5, read-out: IC50, inactivation of cell-free HCVcc
readoutKind: pIC50
The read-out pIC50 is expressed as -log10 of concentration in moles per litre.

**Query** Let me know recorded pIC50 for N=C1Sc2ccccc2C2=NCCCN12 , thanks.
**Result** 4.96

###

System: primary isolates of HIV and SIV
Experiment: organism not typed
Format: cell-based, HIV-1, HIV-2
Conditions: TZM-bl, read-out: IC50 range
readoutKind: IC50

**Query** Let me know recorded IC50 for N=C1Sc2ccccc2C2=NCCCN12 [PD, PD 404,182] , thanks.
**Result** 330 to 1800 nM

###

System: HIV-1 93IN017
Test: HIV infectivity assay in TZM-bl cells
Format: cell-based
Details: Human immunodeficiency virus 1, TZM-bl, 93IN017 (clade C, X4); PD in seminal plasma
readoutKind: IC50 (nM)
Numeric only. Scale: nM

**Query** Let me know recorded IC50 for N=C1Sc2ccccc2C2=NCCCN12 , thanks.
**Result** 450

###

Experiment: Primary cells toxicity testing (LDH)
Format: cell-based
Details: human, primary CD4+ T-lymphocytes, macrophages and dendritic cells, up to 14 days
readoutKind: CC50 at 14 days

**Query** Let me know recorded CC50 at 14 days for N=C1Sc2ccccc2C2=NCCCN12 [PD, PD 404,182] , thanks.
**Result** > 300 µM
